All figures here come from PubChem BioAssay (Tox21).

# Test method notes: qHTS assay to identify small molecule antagonists of the retinoic acid receptor (RAR) signaling pathway (AID 1159552; note: nearly all actives have a fitted effect of over 50% in size)
# Particulars: C3RL4 RARE luciferase reporter, retinol-stimulated, 6 h; series mostly up to 92.4 µM
Records with an inconclusive call do not appear. Calls of active or inactive are those of the source. Calls come from the whole dose curve; as a rule, active = well fitted inhibition curve with a large enough effect in the repeat runs; inconclusive = weak or mixed curves, or effect the other way; inactive = no such curve, though single readings can be large or run the other way.
Classes used: active, inactive

[[record]]
compound = "S=c1[nH]c2ccccc2s1"
assigned_class = "inactive"

[[record]]
compound = "CN(C)[C@@H]1C(=O)C(C(N)=O)=C(O)[C@@]2(O)C(=O)C3=C(O)c4c(O)cccc4C[C@H]3C[C@@H]12"
assigned_class = "inactive"

[[record]]
compound = "CCCCc1oc2ccc(NS(C)(=O)=O)cc2c1C(=O)c1ccc(OCCCN(CCCC)CCCC)cc1"
assigned_class = "active"

[[record]]
compound = "O=CC=C(c1ccccc1)c1ccccc1"
assigned_class = "inactive"

[[record]]
compound = "O=c1c(-c2ccccc2)c1-c1ccccc1"
assigned_class = "active"

[[record]]
compound = "ON=C1CCCC1"
assigned_class = "inactive"

[[record]]
compound = "CCOC(=O)O[C@]1(C(=O)OCCl)CC[C@H]2[C@@H]3CCC4=CC(=O)C=C[C@]4(C)[C@H]3[C@@H](O)C[C@@]21C"
assigned_class = "inactive"

[[record]]
compound = "C=C(C)C(=O)OCC(O)COc1ccc(C(C)(C)c2ccc(OCC(O)COC(=O)C(=C)C)cc2)cc1 (stereo not given)"
assigned_class = "inactive"

[[record]]
compound = "CSc1ccc(C(=O)c2[nH]c(=O)[nH]c2C)cc1"
assigned_class = "inactive"

[[record]]
compound = "CC(C)(C)c1ccc(C(=O)O)cc1"
assigned_class = "inactive"

[[record]]
compound = "Cc1cc(C2CCCCC2)n(O)c(=O)c1"
assigned_class = "inactive"

[[record]]
compound = "O=c1[nH]sc2cc(Cl)ccc12"
assigned_class = "inactive"

[[record]]
compound = "CN(C)CCCOC1(Cc2ccccc2)CCCCCC1"
assigned_class = "inactive"

[[record]]
compound = "Cc1ccc2oc(CN(Cc3ccccc3)C(=O)Nc3c(F)cc(F)cc3F)c(-c3ccc(Cl)cc3)c2c1"
assigned_class = "inactive"

[[record]]
compound = "NNC(=O)c1cccc(C(=O)NN)c1"
assigned_class = "inactive"

[[record]]
compound = "CCCCCCCCNC(C)C(O)c1ccc(SC(C)C)cc1 (stereo not given)"
assigned_class = "active"

[[record]]
compound = "CC[C@@]1(O)C(=O)OCc2c1cc1n(c2=O)Cc2c-1nc1ccccc1c2/C=N/OC(C)(C)C"
assigned_class = "active"

[[record]]
compound = "CC[C@@]1(O)C(=O)OCc2c1cc1n(c2=O)Cc2cc3c(CN(C)C)c(O)ccc3nc2-1"
assigned_class = "active"

[[record]]
compound = "Cc1cccc2c1cc1ccc3cccc4ccc2c1c34"
assigned_class = "inactive"

[[record]]
compound = "CCC1OCC(COc2ccc(Oc3ccccc3)cc2)O1 (stereo not given)"
assigned_class = "inactive"


###

# Tgt: Voltage-gated inwardly rectifying potassium channel KCNH2 (Homo sapiens)
# Test method notes: Human Ether-a-go-go-Related Gene (hERG) channel small molecule antagonists: fluorescence cell-based qHTS assay (AID 1671200); note: nearly all actives have a fitted effect of over 50% in size
# Particulars: hERG-U2OS cells, FluxOR thallium flux fluorescence; series mostly up to 76.8 µM
Records with an inconclusive call do not appear. Calls of active or inactive are those of the source. Calls follow the shape of the dose curve; as a rule, active = well fitted inhibition curve with a large enough effect in the repeat runs; inconclusive = weak or mixed curves; inactive = flat fitted curve, though single readings scatter.
Possible outcomes: active, inactive

[[record]]
mol = "CCCCCCCC[N+](CCCCCCCC)(CCCCCCCC)CCCCCCCC"
assigned_class = "active"

[[record]]
mol = "CN1CCC(Nc2ncc3ncnc(Nc4ccc(F)c(Cl)c4)c3n2)CC1"
assigned_class = "inactive"

[[record]]
mol = "Nc1ccc2c3c(cccc13)-c1ccccc1-2"
assigned_class = "inactive"

[[record]]
mol = "CN(C)[C@@H]1C(=O)C(C(N)=O)=C(O)[C@@]2(O)C(=O)C3=C(O)c4c(O)cccc4C[C@H]3C[C@@H]12"
assigned_class = "inactive"


###

# Test method notes: qHTS RealTime-Glo MT Cell Viability Assay in HepG2 cells - 40 hour (AID 1224870); note: nearly all actives have a fitted effect of over 50% in size
# Particulars: RealTime-Glo luminescence; series mostly up to 76.8 µM
Inconclusive results are not listed. Active and inactive are the calls of the source. Calls come from the whole dose curve; as a rule, active = well fitted cell-killing curve with a large enough effect in the repeat runs; inconclusive = weak or mixed curves, or effect the other way; inactive = flat fitted curve, though single readings scatter.
Labels: active, inactive

[[record]]
compound = "CSc1cnc(C)cn1"
assigned_class = "inactive"

[[record]]
compound = "C[C@]12CCC(=O)C=C1CC[C@@H]1[C@@H]2[C@@H](O)C[C@@]2(C)[C@H]1CC[C@]2(O)C(=O)COC(=O)CCC(=O)O"
assigned_class = "inactive"

[[record]]
compound = "COc1cc(/C=C/C(=O)O[C@H]2CC[C@]34C[C@]35CC[C@]3(C)[C@@H]([C@H](C)CCC=C(C)C)CC[C@@]3(C)[C@@H]5CC[C@H]4C2(C)C)ccc1O"
assigned_class = "inactive"

[[record]]
compound = "CCCCCCCC/C=C/CCCCCCCC1=NCCN1CCO"
assigned_class = "active"

[[record]]
compound = "O=C1C=CC(=O)N1c1ccc(Cc2ccc(N3C(=O)C=CC3=O)cc2)cc1"
assigned_class = "active"

[[record]]
compound = "CCc1cc(Cc2cc(CC)c(N)c(CC)c2)cc(CC)c1N"
assigned_class = "inactive"

[[record]]
compound = "CC(C)=CCOc1ccc(/C=C/C(=O)c2ccc(OCC=C(C)C)cc2OCC(=O)O)cc1"
assigned_class = "inactive"

[[record]]
compound = "O=C(Oc1ccccc1)c1ccccc1C(=O)Oc1ccccc1"
assigned_class = "inactive"

[[record]]
compound = "Clc1ccc2n[nH]nc2c1"
assigned_class = "inactive"

[[record]]
compound = "CCCCN1CCCC[C@H]1C(=O)Nc1c(C)cccc1C"
assigned_class = "inactive"

[[record]]
compound = "Cc1cccc(S(=O)(=O)O)c1C"
assigned_class = "inactive"

[[record]]
compound = "Cc1ccc(-n2nc(C(C)(C)C)cc2NC(=O)Nc2ccc(OCCN3CCOCC3)c3ccccc23)cc1"
assigned_class = "inactive"

[[record]]
compound = "CCC(CN)=C(c1ccccc1)c1ccccc1"
assigned_class = "inactive"

[[record]]
compound = "Cc1cccc(N(C)C(=S)Oc2ccc3c(c2)C2CCC3C2)c1 (stereo not given)"
assigned_class = "inactive"

[[record]]
compound = "ON=C1CCCC1"
assigned_class = "inactive"


###

# Test method notes: qHTS assay to identify small molecule antagonists of the estrogen receptor alpha (ER-alpha) signaling pathway using the BG1 cell line (AID 743080);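 note: BG1 cells stimulated with 17beta-estradiol alongside compound; nearly all actives have a fitted effect of over 25% in size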
# Particulars: BG1Luc4E2 ERE-luciferase antagonist mode, luminescence; series mostly up to 70.3 µM
Results filed as inconclusive are left out. Activity calls are given as the source filed them. Calls come from the whole dose curve.
Labels: y = active, n = inactive

[[record]]
compound = "CCCCCCCC[P+](CCCCCCCC)(CCCCCCCC)CCCCCCCC"
assigned_class = "y"

[[record]]
compound = "O=C(c1ccc(O)cc1O)c1ccc(O)cc1O"
assigned_class = "n"

[[record]]
compound = "NNc1nc(-c2ccccc2)cs1"
assigned_class = "n"

[[record]]
compound = "CCCCCCCC/C=C\\CCCCCCCCOCCO"
assigned_class = "y"

[[record]]
compound = "c1cc(C(c2ccc(OCC3CO3)cc2)c2ccc(OCC3CO3)cc2)ccc1OCC1CO1 (configuration not stated)"
assigned_class = "n"

[[record]]
compound = "O=C(N/N=C/c1ccccc1O)c1ccncc1"
assigned_class = "y"

[[record]]
compound = "CC(=O)N1CCN(c2ccc(OC[C@H]3CO[C@](Cn4ccnc4)(c4ccc(Cl)cc4Cl)O3)cc2)CC1"
assigned_class = "y"

[[record]]
compound = "Oc1ccc(C2(c3ccc(O)cc3)CC3CC2C2CCCC32)cc1 (configuration not stated)"
assigned_class = "y"

[[record]]
compound = "CCCCCCCCCCCCCCCS(=O)(=O)Oc1ccccc1"
assigned_class = "n"

[[record]]
compound = "Cc1c(C)c2c(c(C)c1O)CCC(C)(COc1ccc(CC3SC(=O)NC3=O)cc1)O2 (configuration not stated)"
assigned_class = "y"

[[record]]
compound = "CCc1oc2ccccc2c1C(=O)c1cc(Br)c(O)c(Br)c1"
assigned_class = "n"

[[record]]
compound = "Cc1ccc(O)c2ncccc12"
assigned_class = "n"


###

# Test method notes: qHTS assay to identify small molecule antagonists of the peroxisome proliferator-activated receptor gamma (PPARg) signaling pathway - cell viability counter screen (AID 743194); note: nearly all actives have a fitted effect of over 55% in size
# Particulars: PPARg-bla HEK293H viability, CellTiter-Glo luminescence, 17 h, co-treated with 50 nM rosiglitazone; series mostly up to 62.6 µM
# From the text: U.S. Tox21 Program National Center for Advancing Translational Sciences [NCATS] NIH Chemical Genomics Center [NCGC] U.S. Environmental Protection Agency [EPA] National Institutes of Environmental Health Sciences [NIEHS] National Toxicology Program [NTP] U.S. Food and Drug Administration [FDA] […]
Results filed as inconclusive are left out. The source made the active and inactive calls. Calls come from the whole dose curve; as a rule, active = well fitted cell-killing curve with a large enough effect in the repeat runs; inconclusive = weak or mixed curves, or effect the other way; inactive = no such curve, though single readings can be large or run the other way.
Labels: 1 for active, -1 for inactive

[[record]]
compound = "On1ccccc1=S"
assigned_class = 1

[[record]]
compound = "N=C1C=CC(=C(c2ccc(N)cc2)c2ccc(N)cc2)C=C1"
assigned_class = 1

[[record]]
compound = "CCCCC(CC)CN=C(N)NC(N)=NCCCCCCN=C(N)NC(N)=NCC(CC)CCCC (stereo not given)"
assigned_class = 1

[[record]]
compound = "Cc1c(C)c2c(c(C)c1OC(=O)CCC(=O)O)CC[C@@](C)(CCC[C@H](C)CCC[C@H](C)CCCC(C)C)O2"
assigned_class = -1

[[record]]
compound = "Clc1ccc2nsnc2c1NC1=NCCN1"
assigned_class = -1

